These data points were gathered from ChEMBL document CHEMBL1140563.

Please provide measured Ki for the entries that follow.
biological target: Delta-type opioid receptor (Homo sapiens, UniProt P41143); assay: Displacement of [3H]naltrindole from delta opioid receptor expressed in CHO cells; assay type: cell-based
Sequence (P41143 whole entry): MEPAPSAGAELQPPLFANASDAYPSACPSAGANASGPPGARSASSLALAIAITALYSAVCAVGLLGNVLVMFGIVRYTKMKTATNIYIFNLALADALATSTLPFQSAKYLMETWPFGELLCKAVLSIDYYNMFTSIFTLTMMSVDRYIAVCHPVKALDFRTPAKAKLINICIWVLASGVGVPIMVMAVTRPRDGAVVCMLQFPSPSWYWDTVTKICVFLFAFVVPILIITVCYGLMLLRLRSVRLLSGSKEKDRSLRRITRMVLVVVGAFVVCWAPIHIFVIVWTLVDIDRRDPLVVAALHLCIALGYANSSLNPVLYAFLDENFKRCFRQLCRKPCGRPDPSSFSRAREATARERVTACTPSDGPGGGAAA

C[C@H]1C2Cc3ccc(C(=O)NCCc4ccc5ccccc5c4)cc3[C@@]1(C)CCN2CC1CC1	0.9 nM
C[C@H]1C2Cc3ccc(C(=O)NCc4cccc5ccccc45)cc3[C@@]1(C)CCN2CC1CC1	52 nM
C[C@H]1C2Cc3ccc(C(=O)NCCc4cccc(Br)c4)cc3[C@@]1(C)CCN2CC1CC1	3.5 nM
C[C@H]1C2Cc3ccc(C(=O)NCCc4cccc(-c5ccccc5)c4)cc3[C@@]1(C)CCN2CC1CC1	5.9 nM
C[C@H]1C2Cc3ccc(C(=O)NCCCc4ccc5ccccc5c4)cc3[C@@]1(C)CCN2CC1CC1	18 nM
C[C@H]1C2Cc3ccc(C(=O)NCCc4ccccc4Br)cc3[C@@]1(C)CCN2CC1CC1	150 nM
C[C@H]1[C@H]2Cc3ccc(O)cc3[C@@]1(C)CCN2CC1CC1	2 nM

Please examine the following record next.
Ki reported for this molecule C[C@H]1C2Cc3ccc(C(=O)NCCCc4cccc5ccccc45)cc3[C@@]1(C)CCN2CC1CC1 : 18 nM

====

// endpoint Ki / system Mu-type opioid receptor (Homo sapiens)
Give bare numbers, in nM.

C[C@H]1C2Cc3ccc(C(=O)NCc4cccc5ccccc45)cc3[C@@]1(C)CCN2CC1CC1	2.5
C[C@H]1C2Cc3ccc(C(=O)NCCc4ccc(-c5ccc(Cl)c(Cl)c5)cc4)cc3[C@@]1(C)CCN2CC1CC1	0.98

Next up:
Item C[C@H]1C2Cc3ccc(C(=O)NCCc4ccccc4Br)cc3[C@@]1(C)CCN2CC1CC1 was tested on Mu-type opioid receptor (Homo sapiens); the reported Ki is 4
